- target-or-test-system: human CD73 on the cell surface (293T/17-huCD73 cells) (human) (UniProt P21589)
- Sequence (P21589 27-549): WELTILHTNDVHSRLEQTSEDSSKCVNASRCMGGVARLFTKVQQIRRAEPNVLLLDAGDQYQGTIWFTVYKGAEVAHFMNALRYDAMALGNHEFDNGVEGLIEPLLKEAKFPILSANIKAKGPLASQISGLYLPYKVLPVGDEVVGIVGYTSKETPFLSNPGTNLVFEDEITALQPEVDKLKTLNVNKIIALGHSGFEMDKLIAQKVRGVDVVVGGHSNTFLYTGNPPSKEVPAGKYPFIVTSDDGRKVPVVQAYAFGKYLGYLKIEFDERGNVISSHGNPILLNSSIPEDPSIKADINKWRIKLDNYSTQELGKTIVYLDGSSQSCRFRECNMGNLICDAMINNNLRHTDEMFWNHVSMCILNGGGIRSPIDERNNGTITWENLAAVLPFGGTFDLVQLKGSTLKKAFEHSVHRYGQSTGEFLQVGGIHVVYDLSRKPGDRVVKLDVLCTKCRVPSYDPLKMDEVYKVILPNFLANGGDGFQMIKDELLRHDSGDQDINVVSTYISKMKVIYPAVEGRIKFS
- measurement-protocol: cell-based or functional assay
Property: IC50, blockade of 5'exonuclease activity on 293T/17-human CD73 cells; scope: individual binders
quantity-name: IC50, blockade of 5'exonuclease activity on 293T/17-human CD73 cells (nM)

* JB24Chi (antibody, human IgG1, kappa, V domains shown) VH: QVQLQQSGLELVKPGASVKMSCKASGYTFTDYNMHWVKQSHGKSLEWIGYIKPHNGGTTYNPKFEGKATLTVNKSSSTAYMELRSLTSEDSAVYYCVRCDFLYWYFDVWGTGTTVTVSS VL: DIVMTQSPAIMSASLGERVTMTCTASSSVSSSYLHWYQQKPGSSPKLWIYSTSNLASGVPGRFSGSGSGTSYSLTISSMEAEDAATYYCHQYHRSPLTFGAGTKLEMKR | 0.006
* JB24H2L1 (antibody, human IgG1, kappa, V domains shown) VH: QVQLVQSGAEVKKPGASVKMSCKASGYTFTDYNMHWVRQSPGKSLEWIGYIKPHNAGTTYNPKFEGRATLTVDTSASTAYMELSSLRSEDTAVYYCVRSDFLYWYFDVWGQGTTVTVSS VL: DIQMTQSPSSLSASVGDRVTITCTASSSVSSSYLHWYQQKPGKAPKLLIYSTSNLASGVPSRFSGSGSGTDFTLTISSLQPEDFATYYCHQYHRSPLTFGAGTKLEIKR | 0.042
* JB24H3L2 (antibody, human IgG1, kappa, V domains shown) VH: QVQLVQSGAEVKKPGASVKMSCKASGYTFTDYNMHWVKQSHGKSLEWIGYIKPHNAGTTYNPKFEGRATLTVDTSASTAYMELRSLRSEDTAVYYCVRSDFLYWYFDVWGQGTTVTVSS VL: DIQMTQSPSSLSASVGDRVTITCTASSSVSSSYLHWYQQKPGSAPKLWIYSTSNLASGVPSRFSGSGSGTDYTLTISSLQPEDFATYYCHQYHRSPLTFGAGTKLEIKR | 0.014
